Test system: NCI-H23 lung
Assay: NCI-60 one-dose screen, 48 h (100 = growth as untreated, 0 = no growth, -100 = all killed)
Settings: 10 µM unless noted
The panel holds about 83,000 compounds, 20% with a hit somewhere; the sample as a whole holds those more often.
For each entry below, report its growth value.
The figure you give is taken to be in %; do not add the unit.

Sure, the documented growth for Clc1ccc(/C=N\N=C\c2ccc(Cl)c(Cl)c2)cc1Cl is 84.9

Sure, the documented growth for COc1ccc(Nc2ncc(Br)c(NCCCNC(=O)c3cccs3)n2)cc1 is 39.2

Sure, the documented growth for COc1ccc(/C=N\Nc2nc(SCCC(C)C)nc(-c3ccc(OC)cc3)c2C#N)cc1 is 72.1

Sure, the documented growth for O=c1c2ccccc2n2cnc3ccc(Cl)c1c32 is 86.2

Sure, the documented growth for CC(=O)N1N=C(c2ccc(Nc3nc(Nc4ccccc4)nc(Nc4ccccc4)n3)cc2)CC1c1ccccc1 (stereo not drawn) is 94

Sure, the documented growth for COc1ccc(C/C(C)=C(/c2ccc(OCCN(C)C)cc2)c2ccc(OC(=O)NCc3ccccc3)cc2)cc1 is 83.1

Sure, the documented growth for COc1cc(-c2nc3sccn3c2-c2ccnc(NCCNS(=O)(=O)c3ccccc3)n2)ccc1F is 67.6

Sure, the documented growth for O=C(OC(CO)C(=O)NC12CC3CC(CC(C3)C1)C2)c1ccc(Cl)cc1 (stereo not drawn) is 105
